- experimental.target: SARS-CoV-2 spike receptor-binding domain (RBD), monomeric (SARS-CoV-2, UniProt P0DTC2)
- experimental.protocol: BLI
pKd: −log10 of the molar value.

binder	pKd
MD17 (antibody, V domains shown, biotinylated when immobilised on the BLI sensor) VH: EVQLLESGGGLVQPGGSLRLSCSASGFTFSTYVMNWVRQAPGKGLEHVSGISSDGGITYYADSVKGRFTISRDNSKNTLYLQMSSLRVEDTAVYYCVKDQDSSSWYDAFDIWGQGTMVTVSS VL: DIVMTQSPSSLSASVGDRVTITCRASQSISNYLNWYQQKLGKAPKLLTYAASRLQSGVPSRFSASGSGTEFTLTISSLQPEDFATYYCQQSYTTPLTFGGGTKLEIK	8.59
